Recorded TC values for a group of molecules are listed next.
System: Cricetinae gen. sp.
Test: Effect on total serum cholesterol in male hamsters at a dose of 50 mg/kg orally administered for 14 days
Assay type: functional, Cricetulus griseus
Details: route oral
// return the numeric value with its unit appended

Some molecules with recorded TC:
> print(dat)
                                   molecule  readout.label  recorded.measurement
1  Nc1ccc(SC[C@@H]2CO[C@@](CCc3ccc(Cl)cc3)(Cn3ccnc3)O2)cc1             TC           112.4 mg/dL
2  Nc1ccc(SC[C@@H]2CO[C@](CCc3ccc(Cl)cc3)(Cn3ccnc3)O2)cc1             TC            74.7 mg/dL
3  Cl.Cl.Cl.Nc1ccc(SC[C@@H]2CO[C@](CCc3ccc(Cl)cc3)(Cn3ccnc3)O2)cc1             TC            88.9 mg/dL

Case CC(=O)N1CCN(c2ccc(OCC3COC(Cn4ccnc4)(c4ccc(Cl)cc4Cl)O3)cc2)CC1 (centres undefined) , Cricetinae gen. sp., TC recorded as 111.4 mg/dL

---

Assay: Inhibition of lanosterol 14-alpha-demethylation in hepatic microsomes from rat
Format: functional, Liver
Readout Label: Ki (nM)
Report the value in nM with no unit label.

compound Nc1ccc(SC[C@@H]2CO[C@](CCc3ccc(Cl)cc3)(Cn3ccnc3)O2)cc1 , Ki observed: 2.5

---

Target: Steroid 17-alpha-hydroxylase/17,20 lyase (Homo sapiens, UniProt P05093)
Sequence (P05093 whole entry): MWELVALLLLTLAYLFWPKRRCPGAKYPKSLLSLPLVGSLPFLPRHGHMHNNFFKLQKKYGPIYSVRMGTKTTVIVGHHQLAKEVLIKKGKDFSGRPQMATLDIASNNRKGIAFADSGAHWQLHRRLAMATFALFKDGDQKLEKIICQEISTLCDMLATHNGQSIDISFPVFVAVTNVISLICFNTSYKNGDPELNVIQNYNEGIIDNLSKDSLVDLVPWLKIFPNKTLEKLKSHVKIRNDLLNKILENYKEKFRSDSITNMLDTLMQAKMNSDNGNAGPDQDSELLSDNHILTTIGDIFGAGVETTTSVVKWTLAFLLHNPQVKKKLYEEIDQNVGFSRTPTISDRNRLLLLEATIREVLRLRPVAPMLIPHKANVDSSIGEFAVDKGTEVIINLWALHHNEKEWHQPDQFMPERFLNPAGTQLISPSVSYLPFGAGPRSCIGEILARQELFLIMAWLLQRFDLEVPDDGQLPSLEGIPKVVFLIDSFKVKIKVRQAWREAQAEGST
Assay: Binding affinity for […] 17-alpha-hydroxylase
Readout Label: Ki
Answer with the figure and its unit, nothing else.

> print(dat)
                           smiles.structure  recorded.measurement
1  Nc1ccc(SC[C@@H]2CO[C@](CCc3ccc(Cl)cc3)(Cn3ccnc3)O2)cc1               1620 nM

Now turn to the next molecule.
Entry Nc1ccc(SC[C@H]2CO[C@@](CCc3ccc(Cl)cc3)(Cn3ccnc3)O2)cc1 , Ki reported as 109 nM

---

Molecular target: Cytochrome P450 11B1, mitochondrial (Homo sapiens, UniProt P15538)
Sequence (P15538 whole entry): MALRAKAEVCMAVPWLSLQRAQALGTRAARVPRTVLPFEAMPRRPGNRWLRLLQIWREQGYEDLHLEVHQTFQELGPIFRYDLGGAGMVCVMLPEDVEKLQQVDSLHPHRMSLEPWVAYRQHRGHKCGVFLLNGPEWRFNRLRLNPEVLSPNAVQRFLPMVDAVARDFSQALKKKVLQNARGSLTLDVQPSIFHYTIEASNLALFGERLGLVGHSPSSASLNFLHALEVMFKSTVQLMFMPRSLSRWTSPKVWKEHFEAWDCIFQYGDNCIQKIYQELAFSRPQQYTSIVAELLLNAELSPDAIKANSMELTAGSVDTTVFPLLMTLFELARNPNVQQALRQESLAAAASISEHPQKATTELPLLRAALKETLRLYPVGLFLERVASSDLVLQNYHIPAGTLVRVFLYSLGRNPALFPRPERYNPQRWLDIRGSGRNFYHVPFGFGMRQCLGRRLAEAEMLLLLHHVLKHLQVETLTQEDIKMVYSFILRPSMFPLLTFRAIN
Overview of recorded pKi for various molecules
Reminder that pKi means the negative base-10 logarithm of the concentration expressed in mol/L.

> print(dat)
                           smiles.structure  readout.label  recorded.measurement
1  Nc1ccc(SC[C@H]2CO[C@@](CCc3ccc(Cl)cc3)(Cn3ccnc3)O2)cc1            pKi                  7.82

Here's the next entry for you.
Record Nc1ccc(SC[C@@H]2CO[C@](CCc3ccc(Cl)cc3)(Cn3ccnc3)O2)cc1 has Cytochrome P450 11B1, mitochondrial (Homo sapiens, UniProt P15538) pKi equal to 7.46

---

The following molecules are listed with their measured pKi values.
Biological target: Steroid 17-alpha-hydroxylase/17,20 lyase (Homo sapiens)
Experiment: Binding affinity for progesterone 17-alpha,20-lyase
Conceptually, pKi converts a concentration in mol/L into minus its log10.

> print(dat)
                           smiles.structure  readout.label  recorded.measurement
1  Nc1ccc(SC[C@H]2CO[C@@](CCc3ccc(Cl)cc3)(Cn3ccnc3)O2)cc1            pKi                  7.27

Moving on to the next molecule.
In plain terms, Nc1ccc(SC[C@@H]2CO[C@](CCc3ccc(Cl)cc3)(Cn3ccnc3)O2)cc1 has a documented pKi of 6.35
